Give TGI for every item shown.
test system: EKVX NSCLC; test: NCI tumour cell line growth inhibition, 48 h

Answered examples (10):
Compound: Cc1ccc(-c2c(C#N)c(S)n(NS(=O)(=O)c3ccc(C)cc3)c(=O)c2C#N)cc1
Obs Value: > 100 µM

Compound: NS(=O)(=O)c1cc2c(cc1Cl)NC(Cc1ccccc1)NS2(=O)=O (configuration not stated)
Obs Value: > 100 µM

Compound: COc1cc2c(cc1OCCOS(C)(=O)=O)N=C[C@@H]1CCCN1C2=O
Obs Value: > 100 µM

Compound: Cc1cn(C2CCC(/C=N\O)O2)c(=O)[nH]c1=O (configuration not stated)
Obs Value: > 100 µM

Compound: CCn1cc(/C=C/C(C)c2cn(CC)c(=O)[nH]c2=O)c(=O)[nH]c1=O (configuration not stated)
Obs Value: > 100 µM

Compound: COC(=O)C1(Cc2ccc3c(c2)CCC3)Cc2ccc3c(c2C1O)CCC3 (configuration not stated)
Obs Value: 32 µM

Compound: CC1(C)CC(=O)C2=C(C1)OC1=C(C(=O)CC(C)(C)C1)C2CC(c1ccccc1)c1ccc(O)c(O)c1O (configuration not stated)
Obs Value: > 10 µM

Compound: CCOC(=O)c1c(C)c2c(n1C)CCc1cn[nH]c1-2
Obs Value: > 100 µM

Compound: CC/C=C1\N=C(c2ccc(Cl)cc2)OC1=O
Obs Value: > 100 µM

Compound: CCCCn1c(C)c(C(=O)OCC)s/c1=N/Nc1nc2ccccc2nc1-c1ccccc1
Obs Value: > 100 µM

Each of the following entries comes with a recorded value; kindly state TGI for each.
1. Cc1cccc2c1Oc1ccccc1C2NC(=O)c1ccc([N+](=O)[O-])cc1 (configuration not stated)
2. CC(C)C1OC(=O)C=C1Sc1ccccc1 (configuration not stated)
3. CSc1nc(-c2cc3c(c(SC)n2)CCCCC3)cc2c1CCCCC2
4. CCCc1cc(=O)oc2c3c(c4c(c12)OC(C)(C)C=C4)O[C@@H](C)[C@H](C)C3=O

["> 100 µM", "> 100 µM", "> 100 µM", "24.6 µM"]

---

test system: TK-10 renal; assay: NCI tumour cell line growth inhibition, 48 h; in the data active means GI50 below about 0.43 µM; inactive means the rest
Allowed answers: true = active, false = inactive

Worked examples, 5 compounds total:
Compound: CCCCCC(O)C1C(=O)OC(C)C(O)/C=C/C=C/C=C/C=C\C=C(\C)C(O)CC(O)CC(O)CC(O)CC(O)CC(O)CC1O (stereo not drawn)
Cat: false
//
Compound: CC(=O)c1ccc(NC(=O)CSc2nnc(-c3cc(-c4ccc(C)cc4)nc4ccccc34)o2)cc1
Cat: false
//
Compound: OCCCN=NNc1ccc(-c2nc3ccccc3[nH]2)cc1
Cat: false
//
Compound: CC(C)[C@@]12C[C@@H](OC(=O)[C@H]3CO3)[C@@](C)(O1)[C@@H]1CC[C@@H](C)[C@H]1[C@@H]2OC(=O)/C=C/c1ccccc1
Cat: false
//
Compound: CN(C)c1ccc(C(=C2C=CC(=[N+](C)C)C=C2)c2ccc(N(C)C)cc2)cc1 (tested in a mixture with another compound)
Cat: true

What classification did CCOC(=O)c1sc2nc3sc(N=Nc4ccc(Cl)cc4)c(O)n3c(=S)c2c1C end up with in this test?
false

Check NC(CSC(c1ccccc1)(c1ccccc1)c1ccc(Cl)cc1)C(=O)O (stereo not drawn) too.
false

Check CCN(CC)c1cc(/C=C/c2ccc(OC)c(OC)c2)nc2cc(F)c(F)cc12 too.
false

---

system: SR leukemia; assay: NCI tumour cell line growth inhibition, 48 h
Recorded Metric: TGI

Answered examples (2):
Molecule: CC1=C2c3c(C)ccc4ccc(C)c(c34)C2(O)C(C)C1=O (stereo not given)
TGI: > 100 µM
--
Molecule: CCOC(=O)N1CCc2cc(OC)c(OC)c3c2C1CC3=O (stereo not given)
TGI: > 100 µM

Each of the following entries comes with a recorded value; kindly state TGI for each.
1. CCCc1cc(=O)oc2c3c(c4c(c12)OC(C)(C)C=C4)O[C@@H](C)[C@H](C)C3=O
2. N=C(N)c1ccc(-c2ccc(-c3ccc(Cl)cc3Cl)s2)cc1F
3. Brc1ccc(-c2nnc(-c3nn(-c4ccccc4)c4nc5ccccc5nc34)o2)cc1

41.6 µM
> 100 µM
> 100 µM

---

test system: CAKI-1 renal; experiment: NCI tumour cell line growth inhibition, 48 h
Give TGI for every item shown.

Compound: O=C1Nc2cccc(Cl)c2/C1=C\c1c(Cl)nc2sccn12
Recorded Metric: TGI
Obs Value: > 100 µM
--
Compound: Cc1ccc(-c2c(C#N)c(S)n(NS(=O)(=O)c3ccc(C)cc3)c(=O)c2C#N)cc1
Recorded Metric: TGI
Obs Value: 74.3 µM
--
Compound: COc1cc(-c2oc3c(OC)c(O)c(OC)c(O)c3c(=O)c2OC)cc(O)c1OC
Recorded Metric: TGI
Obs Value: > 100 µM
--
Compound: CCOC(=O)c1c(C)c2c(n1C)CCc1cn[nH]c1-2
Recorded Metric: TGI
Obs Value: > 100 µM
--
Compound: COc1ccc(C2=NNC(=O)OC2c2ccccc2)cc1 (stereo not given)
Recorded Metric: TGI
Obs Value: > 100 µM
--
Compound: CCOC(=O)c1sc2nc3sc(N=Nc4ccc(Cl)cc4)c(O)n3c(=S)c2c1C
Recorded Metric: TGI
Obs Value: 57.3 µM

Each of the following entries comes with a recorded value; kindly state TGI for each.
1. N#CC(C(=O)/C(=N\Nc1nc(=S)[nH]n1N)C(C#N)c1ccc(Cl)cc1)c1ccc(Cl)cc1 (stereo not given)
2. CCCCCCCC/C=C/CCCCCCCCC1=NCCN1CCO

1: > 100 µM; 2: 14.8 µM

Each of the following entries comes with a recorded value; kindly state TGI for each.
1. O=C(NNC(=S)Nc1ccccc1)c1ccccc1Nc1ccccc1C(=O)NNC(=S)Nc1ccccc1
2. Cn1nc(/C=C\C(=O)N2CC(CCl)c3c2cc(N)c2ccccc32)cc1/C=C/C(=O)N1CC(CCl)c2c1cc(N)c1ccccc21 (stereo not given)

1: > 100 µM; 2: < 0.01 µM

---

Give TGI for every item shown.
tested on: SF-539 CNS; test: NCI tumour cell line growth inhibition, 48 h
Give bare numbers, in µM.

Smiles Notation: CCCCCCCC/C=C/CCCCCCCC1=NCC[N+]1(CCO)CCO
Recorded Metric: TGI
Unit Abbreviation: µM
Obs Value: 13.1

Now turn to the next molecule.
Can you look up the measured TGI of CCCc1c(OC)c(=O)c2c(OC)cc(OC)c3c4c(OC)cc(OC)c5c(=O)c(OC)c(CCC)c(c1c23)c54 for me?
30.9

---

system: SNB-75 CNS; test: NCI tumour cell line growth inhibition, 48 h
Recorded Metric: TGI (µM)
One number for each entry, in µM.

Compound: CCCc1c(OC)c(=O)c2c(OC)cc(OC)c3c4c(OC)cc(OC)c5c(=O)c(OC)c(CCC)c(c1c23)c54
Obs Value: 36
--
Compound: CC(=O)c1c(C(F)(F)F)n([O-])c2ccc(Cl)cc2[n+]1=O
Obs Value: 8.38
--
Compound: COC(=O)c1ccc2c(c1)nc(-c1cc3ccccc3[nH]c1=O)n2-c1cc(C(C)(C)C)[nH]n1
Obs Value: 41.5
--
Compound: Cc1ccc(NC(=O)NC(=O)c2ccc([N+](=O)[O-])cc2[N+](=O)[O-])cc1Oc1ncc(Cl)cn1
Obs Value: 2.4
--
Compound: C=C1C[C@](OC)([C@H](O)C(=O)N[C@@H](OC)[C@@H]2C[C@@H](O)C(C)(C)[C@@H](C[C@@H](COC)OC)O2)O[C@H](C)[C@@H]1C
Obs Value: 0.00825
--
Compound: CC(=O)N1CC(Nc2ccc(OC(F)(F)F)cc2)=CC1=O
Obs Value: 7.59
--
Compound: Cc1cc2cc3cc(C)c(N(C)C)cc3nc2cc1N(C)C
Obs Value: 20.1
--
Compound: C[C@]12CC[C@@H]3c4cc(OCC(F)(F)F)c(O)cc4C(=O)C[C@H]3[C@@H]1CC[C@@H]2O
Obs Value: 65.7
--
Compound: CCCC/C=C/C1Cc2ccccc2CN1S(=O)(=O)c1ccc(C)cc1 (stereo unspecified)
Obs Value: 37.5
--
Compound: CCC1=CC2CN3CCc4c([nH]c5ccccc45)C(C(=O)OC)(C2)C13 (stereo unspecified)
Obs Value: 89.9

Each of the following entries comes with a recorded value; kindly state TGI for each.
1. CN1CN(c2ccccc2)C2(CCN(CCCSc3ccccc3NC(=O)/C=C/c3ccccc3)CC2)C1=O
2. O=C/C(=C(/Br)I)c1ccccc1
3. CC(C)CCOc1ccc(-c2n[nH]c(C(F)(F)F)c2-c2cncc(C#N)c2)c(O)c1
4. COc1ccccc1-n1c(-c2cc(O)ccc2C)cn2c3c(=O)[nH]c(=O)n(C)c3nc12
5. S=C(N/N=C(/c1ccccc1)c1ccccn1)Nc1ccccc1Cl

[22.8, 18.7, 14.6, 1.12, 19.4]

Each of the following entries comes with a recorded value; kindly state TGI for each.
1. Cc1ccc(NC(=O)c2cccc([N+](=O)[O-])c2O)c([N+](=O)[O-])c1
2. COc1cc2c(cc1OC)-c1cc3cc(OC)c(OC)cc3n1CC2
3. CC(C)(C)[Si](C)(C)OCC1OC(n2cnc3c(NC(=O)c4ccccc4)ncnc32)CC1O (stereo unspecified)
4. COc1cc2c(c(C)c1O)[C@H]1COc3ccccc3[C@H]1O2
5. Cc1cc(C)nc(NS(=O)(=O)c2ccc(Nc3c4ccccc4nc4c(C(=O)NCCCN(CCO)CCO)cccc34)cc2)n1
6. CCN(CC)c1cc(/C=C/c2ccc(OC)c(OC)c2)nc2cc(F)c(F)cc12

1. 29.4
2. 50.5
3. 60.3
4. 23.7
5. 23.1
6. 2.89

Data provenance: PubChem BioAssay (NCI)
